The measured values listed here are drawn from ChEMBL document CHEMBL4828748.

- Method Summary: Cytotoxicity against C57BL/6J mouse peritoneal macrophages assessed as reduction of cell viability at 10 uM incubated for 24 hrs in presence of LPS by MTT assay
- Format: cell-based, Peritoneal macrophage
Quick rule: inhibition at 24 h, 10 µM of at least 4% means rule met, below that means rule not met.

Does `C=CCCCCCCCCC(=O)Oc1c(OC)cc(C=O)c2c1[C@@]13CCN(C)[C@@H](C2)[C@H]1C=C(OC)C(=O)C3` have a reported inhibition at 24 h, 10 µM of at least 4%?
rule not met

Could you tell me if the measured inhibition at 24 h, 10 µM of `CCCCCCCCCCCC(=O)Oc1c(OC)ccc2c1[C@@]13CCN(C)[C@@H](C2)[C@H]1C[C@@H](OC)C(=O)C3` reaches 4% or more?
rule not met

Is reported inhibition at 24 h, 10 µM greater than or equal to 4% here: `CCCCCCCC/C=C/CCCCCCCCCCCC(=O)Oc1c(OC)ccc2c1[C@@]13CCN(C)[C@@H](C2)[C@H]1C=C(OC)C(=O)C3`
rule not met

Check if inhibition at 24 h, 10 µM >= 4% (inclusive). Item: `CCCCCCCCCCCC(=O)OCc1cc(OC)c(OC(=O)CCCCCCCCCCC)c2c1C[C@H]1[C@H]3C=C(OC)C(=O)C[C@@]23CCN1C`
rule met

Quick check, inhibition at 24 h, 10 µM >= 4%? `CCCCCCCCCCCCCCCC(=O)OCc1cc(OC)c(OC(=O)CCCCCCCCCCCCCCC)c2c1C[C@H]1[C@H]3C=C(OC)C(=O)C[C@@]23CCN1C`
rule met

State whether the measured inhibition at 24 h, 10 µM reaches 4%, counting equality as reaching it, for `CCCCCCCC/C=C/CCCCCCCCCCCC(=O)OCc1cc(OC)c(OC(=O)CCCCCCCCCCC/C=C/CCCCCCCC)c2c1C[C@H]1[C@H]3C=C(OC)C(=O)C[C@@]23CCN1C`
rule not met

API: above_or_equal(metric=inhibition at 24 h, 10 µM, cutoff=4%) for item `C/C=C/C=C/C(=O)Oc1c(OC)ccc2c1[C@@]13CCN(C)[C@@H](C2)[C@H]1C[C@@H](OC)C(=O)C3`
rule met

Check this molecule for inhibition at 24 h, 10 µM at or above 4%: `COc1ccc2c(c1OC(=O)/C=C/c1ccccc1)[C@@]13CCN(C)[C@@H](C2)[C@H]1C[C@@H](OC)C(=O)C3`
rule met

Form field: inhibition at 24 h, 10 µM at least 4%? Entry: `COc1ccc2c(c1OC(=O)c1cccnc1)[C@@]13CCN(C)[C@@H](C2)[C@H]1C[C@@H](OC)C(=O)C3`
rule not met

Decide: inhibition at 24 h, 10 µM of `COC1=C[C@@H]2[C@@H]3Cc4ccc(OC)c(O)c4[C@]2(CCN3C)CC1=O` >= 4%?
rule not met

Could you please find out whether `C/C=C/C=C/C(=O)OCc1cc(OC)c(OC(=O)/C=C/C=C/C)c2c1C[C@H]1[C@H]3C=C(OC)C(=O)C[C@@]23CCN1C` has inhibition at 24 h, 10 µM that meets 4% or exceeds it?
rule met

In plain terms: is recorded inhibition at 24 h, 10 µM at least 4% for `CCCCCCCCCCCC(=O)Oc1c(OC)cc(C=O)c2c1[C@@]13CCN(C)[C@@H](C2)[C@H]1C=C(OC)C(=O)C3` ?
rule not met

# bool: inhibition at 24 h, 10 µM of `CCCCCCCCCCCC(=O)Oc1c(OC)ccc2c1[C@@]13CCN(C)[C@@H](C2)[C@H]1C=C(OC)C(=O)C3` >= 4%
rule met

Please check the record `C/C=C/C=C/C(=O)Oc1c(OC)ccc2c1[C@@]13CCN(C)[C@@H](C2)[C@H]1C=C(OC)C(=O)C3` and state if its inhibition at 24 h, 10 µM is at or above 4%.
rule not met
